- protocolDetails: Standard protocol for determination of kcat and KM (continuous spectrophotometric assay, Acetyl CoA hydrolysis at 235 nm)
- Assay type: biochemical
- conditionContext: purified protein; about 23° C.; 20 mM HEPES pH 6.8, 10% ethylene glycol, 0.2 mM acetyl CoA
Here, each record is paired with measured Kcat data.
Give the value, in units of s⁻¹, as a plain number.

// solved cases for Kcat follow
| molecule | endpointUnit | Kcat |
| --- | --- | --- |
| SEQ ID NO: 459: GAT polypeptide (protein, 11_3B1, GAT polypeptide) MLEVKPINAEDTYELRHRILRPNQPIEACMFETDLLRGAFHLGGFYRGKLISIASFHQAEHSDLQGQKQYQLRGMATLEGFREQKAGSTLIRHAEEILRKRGADLLWCNARTSASGYYKRLGFSEQGEIFDTPPVGPHILMYKRLT | s⁻¹ | 3.6662 |
| SEQ ID NO: 506: GAT polypeptide (protein, 8_1H7, GAT polypeptide) MLEVKPINAEDTYELRHRILRPNQPIEVCMYETDLLRGAFHLGGFYRGKLISIASFHQAEHSELQGQKQYQLRGMATLEGYREQKAGSSLIKHAEEILRKRGADMLWCNARTSASGYYKKLGFSEQGEIFETPPVGPHILMYKRLT | s⁻¹ | 1.6873 |
| SEQ ID NO: 489: GAT polypeptide (protein, 3_6A10, GAT polypeptide) MIEVKPINAEDTYELRHRILRPNQPIEACMYESDLLRGAFHLGGYYRGKLISIASFHQAEHSELQGQKQYQLRGMATLEGYREQKAGSSLIKHAEEILRKRGADLLWCNARTSASGYYKKLGFSEQGEIFETPPVGPHILMYKRIT | s⁻¹ | 2.108 |
| SEQ ID NO: 472: GAT polypeptide (protein, 1_2D2, GAT polypeptide) MIEVKPINAEDTYELRHKILRPNQPLEACMYESDLLRSAFHLGGFYRGKLISIASFHKAEHSELQGQKQYQLRGMATLEGYRDQKAGSSLIRHAEEILRKRGADMLWCNARTSAAGYYKRLGFSEQGEVFDTPPVGPHILMYKRIT | s⁻¹ | 2.07 |

Quick note, Kcat for SEQ ID NO: 275: GAT polypeptide (protein, 10_20D10, GAT polypeptide) MIEVKPINAEDTYEIRHRILRPNQPLEACMYETDLLGGTLHLGGYYRGKLISIASFHQAEHPELEGQKQYQLRGMATLEEYREQKAGSTLIRHAEELLRKKGADLLWCNARTSASGYYKKLGFSEQGGVYDIPPVGPHILMYKKLT landed at 1.44

The reported Kcat of the molecule SEQ ID NO: 291: GAT polypeptide (protein, 12_6D1, GAT polypeptide) MIEVKPINAEDTYEIRHRILRPNQPLEACMYETDLLGGTFHLGGYYRGKLISIASFHQAEHPELEGQKQYQLRGMATLEEYREQKAGSTLIRHAEELLRKKGADLLWCNARTSASGYYKKLGFSEQGGVYDIPPVGPHILMYKKLT was 0.817
